# ASSAY PROCEDURE: In vivo biodistribution and regional brain uptake in rats
# SETTINGS: male SD rats, i.v., 30 min p.i. (control)
MEASURED PARAMETER: Biodistribution, fat (%ID/gram)
Give the value in %ID/gram but do not write %ID/gram after it.

> print(dat)
                                   molecule  reported.value
1  Cn1cc(-c2ccncc2)c(-c2ccc(OCc3ccc4cc(O[11CH3])ccc4n3)cc2)n1 [[^11C]3]           0.221
2  Cn1cc(-c2ccncc2)c(-c2ccc(OCc3cc(O[11CH3])c4ccccc4n3)cc2)n1 [[^11C]2]           0.371
3  Cn1ncc(-c2ccncc2)c1-c1ccc(OCc2cc(O[11CH3])c3ccccc3n2)cc1 [[^11C]4]           0.139

Prompt: In one line, give reported Biodistribution, fat of the entry Cn1cc(-c2ccncc2)c(-c2ccc(OCc3nc4ccccc4cc3O[11CH3])cc2)n1 [[^11C]1] .
Completion: 0.851
